# credit: patent US6642215B2

Target: IKK (Homo sapiens, UniProt O14920)
Construct: IKK was immunoprecipitated with an IKKα/β antibody; endogenous in cells; host or cells: THP-1 cells stimulated with 1 μg/ml LPS; whole cell extract immunoprecipitated with an IKKα/β antibody (Santa Cruz)
Sequence (O14920 whole entry): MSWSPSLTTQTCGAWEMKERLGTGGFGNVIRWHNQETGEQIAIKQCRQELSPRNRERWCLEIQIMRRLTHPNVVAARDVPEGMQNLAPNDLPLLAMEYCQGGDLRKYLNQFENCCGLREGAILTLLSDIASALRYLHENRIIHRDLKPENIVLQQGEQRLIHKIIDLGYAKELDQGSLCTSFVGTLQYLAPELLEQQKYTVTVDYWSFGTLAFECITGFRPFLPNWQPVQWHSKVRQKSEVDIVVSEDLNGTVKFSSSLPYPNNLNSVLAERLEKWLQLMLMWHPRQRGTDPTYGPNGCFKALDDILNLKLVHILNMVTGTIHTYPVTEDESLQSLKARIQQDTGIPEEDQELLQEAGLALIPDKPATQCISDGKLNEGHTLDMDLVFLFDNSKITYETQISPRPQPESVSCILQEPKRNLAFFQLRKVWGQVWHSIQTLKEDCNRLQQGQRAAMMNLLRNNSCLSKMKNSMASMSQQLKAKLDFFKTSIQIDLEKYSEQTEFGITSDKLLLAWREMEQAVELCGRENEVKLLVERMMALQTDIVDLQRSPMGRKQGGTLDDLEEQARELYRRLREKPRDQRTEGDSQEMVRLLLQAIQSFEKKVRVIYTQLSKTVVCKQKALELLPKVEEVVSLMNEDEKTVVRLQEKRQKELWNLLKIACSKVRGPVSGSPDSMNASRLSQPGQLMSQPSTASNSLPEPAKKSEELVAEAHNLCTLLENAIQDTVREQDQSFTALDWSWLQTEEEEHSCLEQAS
Sequence (O15111 whole entry partner): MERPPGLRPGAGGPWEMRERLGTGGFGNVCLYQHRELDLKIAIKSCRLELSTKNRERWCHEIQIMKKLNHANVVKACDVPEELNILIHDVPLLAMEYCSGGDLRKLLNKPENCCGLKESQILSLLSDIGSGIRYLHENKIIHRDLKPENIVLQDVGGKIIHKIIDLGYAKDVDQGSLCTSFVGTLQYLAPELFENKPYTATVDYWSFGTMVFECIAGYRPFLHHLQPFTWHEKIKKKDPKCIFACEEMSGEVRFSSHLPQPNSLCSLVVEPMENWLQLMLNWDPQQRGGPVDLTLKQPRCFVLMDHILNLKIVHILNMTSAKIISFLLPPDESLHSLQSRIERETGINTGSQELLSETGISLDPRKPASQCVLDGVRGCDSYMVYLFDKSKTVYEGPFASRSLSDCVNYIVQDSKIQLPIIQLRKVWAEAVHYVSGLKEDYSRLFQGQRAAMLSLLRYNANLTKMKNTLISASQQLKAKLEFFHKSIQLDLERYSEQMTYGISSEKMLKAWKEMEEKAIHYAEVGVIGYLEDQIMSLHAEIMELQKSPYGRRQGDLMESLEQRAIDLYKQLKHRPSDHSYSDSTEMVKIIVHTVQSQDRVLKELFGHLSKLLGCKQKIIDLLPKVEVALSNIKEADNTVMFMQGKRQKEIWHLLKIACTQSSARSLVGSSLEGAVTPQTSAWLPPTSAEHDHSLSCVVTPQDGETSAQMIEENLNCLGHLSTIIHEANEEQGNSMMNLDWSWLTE
Sequence (Q9Y6K9 whole entry partner): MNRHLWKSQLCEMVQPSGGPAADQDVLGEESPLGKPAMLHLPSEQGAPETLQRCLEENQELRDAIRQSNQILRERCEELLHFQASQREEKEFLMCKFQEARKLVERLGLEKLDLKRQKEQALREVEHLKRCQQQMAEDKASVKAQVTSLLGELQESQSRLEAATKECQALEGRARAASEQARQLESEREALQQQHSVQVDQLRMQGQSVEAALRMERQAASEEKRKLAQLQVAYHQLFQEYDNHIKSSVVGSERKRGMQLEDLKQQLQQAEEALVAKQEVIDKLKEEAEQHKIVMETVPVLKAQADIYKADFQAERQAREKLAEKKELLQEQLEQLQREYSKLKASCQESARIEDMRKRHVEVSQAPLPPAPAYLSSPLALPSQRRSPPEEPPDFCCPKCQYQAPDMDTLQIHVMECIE
Assay: In vitro kinase assay: IKK immunoprecipitated from LPS-stimulated THP-1 cells, GST-IκBα phosphorylation
Format: biochemical
Conditions: GST-IκB phosphorylated by activated IKK pretreated with the compound; cell prints (M), head nM; read-out: IKK activity in vitro (IC50)
Protocol: In vitro kinase assay: THP-1 cells (1×10^7 cells) were stimulated with 1 μg/ml LPS for the indicated time periods and whole cell extracts were prepared as described above. […] A general problem with the kinase assay is prestimulation of the kinase. […] All data are expressed as percentage of the activity of the LPS-activated IKKβ kinase treated with 0.1% DMSO.
ENDPOINT: IC50

Which IC50 value belongs to CCOC(=O)c1cccc(NC(=NC#N)NCCCCCCOc2ccc(Cl)cc2)c1 [compound E] ?
> 1e-05 M
